Tested on: U87-MG cells
EXPERIMENT_DESCRIPTION: In vitro assay 2: BCAT cellular assay, leucine in medium of U87-MG cells
Format: cell-based
TEST_CONDITIONS: 24 hours incubation, leucine level in medium (LeuDH/diaphorase/resazurin readout)
Give IC50 for every item shown.
Numbers only, in µM.

Please review the entries below; each comes with its answer.
# COMPOUND, SYSTEM_TESTED, NUMERIC_RESULT
records = [
    ("COc1cc(C#N)c(Oc2ccccc2C)cc1-n1c(=O)cc(S(=O)(=O)c2ccccc2)[nH]c1=O (single isomer, unassigned)", "U87-MG cells", 12.5),
    ("Cc1ccccc1Oc1cc(-n2c(=O)cc(C(F)(F)F)[nH]c2=O)c(C)cc1C#N (single isomer, unassigned) [Example 8]", "U87-MG cells", 6),
]

Field: next compound
input: Supply IC50 value. Item: Cc1ccccc1Oc1cc(-n2c(=O)cc(C(F)(F)F)[nH]c2=O)c(C)cc1C#N (single isomer, unassigned) [Example 9]
output: 1.5

###

Give IC50 for every item shown.
SYSTEM_TESTED: recombinant human BCAT1 enzyme (Homo sapiens)
Construct: purchased ATGen (South Korea) ATGP1479
Sequence (P54687 1-386): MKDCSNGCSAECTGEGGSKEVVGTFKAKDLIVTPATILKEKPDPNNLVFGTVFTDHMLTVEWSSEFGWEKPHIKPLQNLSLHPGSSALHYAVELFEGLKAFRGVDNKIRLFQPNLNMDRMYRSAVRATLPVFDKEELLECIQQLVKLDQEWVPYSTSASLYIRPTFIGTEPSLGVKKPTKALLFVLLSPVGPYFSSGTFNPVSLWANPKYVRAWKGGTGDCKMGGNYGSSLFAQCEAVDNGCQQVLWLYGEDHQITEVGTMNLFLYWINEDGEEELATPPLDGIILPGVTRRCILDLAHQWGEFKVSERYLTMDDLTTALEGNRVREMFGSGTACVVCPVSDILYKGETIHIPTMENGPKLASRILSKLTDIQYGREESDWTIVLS
EXPERIMENT_DESCRIPTION: In vitro assay 1a: BCAT1 biochemical assay (coupled LeuDH/NADH fluorescence readout)
TEST_CONDITIONS: BCAT1 IC50 [M]
Numbers only, in M.

Please review the entries below; each comes with its answer.
# COMPOUND, IC50 [M]
measured = [
    ("COc1cc(C#N)c(Oc2ccccc2C)cc1-n1c(=O)cc(C(F)(F)F)[nH]c1=O (single isomer, unassigned) [Example 6]", "6.25e-07"),
    ("Cc1ccccc1Oc1cc(-n2c(=O)cc(C(F)(F)F)[nH]c2=O)c(C)cc1C#N (racemic) [Example 7]", "2.87e-07"),
]

Batch request: IC50 per item, same order as input.
1. COc1cc(C#N)c(Oc2ccccc2C)cc1-n1c(=O)cc(C(F)(F)F)[nH]c1=O (single isomer, unassigned) [Example 5]
2. Cc1ccccc1Oc1cc(-n2c(=O)cc(C(F)(F)F)[nH]c2=O)c(C)cc1C#N (single isomer, unassigned) [Example 8]
3. Cc1ccccc1Oc1cc(-n2c(=O)cc(C(F)(F)F)[nH]c2=O)c(C)cc1C#N (single isomer, unassigned) [Example 9]
4. COc1cc(C#N)c(Oc2ccccc2C)cc1-n1c(=O)cc(C(F)(F)F)[nH]c1=O (racemic) [Example 4]

output:
1.13e-07
1.1e-06
8e-08
1.62e-07

###

System: MDA-MB231 cells
EXPERIMENT_DESCRIPTION: In vitro assay 2: BCAT cellular assay, leucine in medium of MDA-MB231 cells
Type: cell-based
TEST_CONDITIONS: Homo sapiens, MDA-MB-231, 24 h, 24 hours incubation, leucine level in medium (LeuDH/diaphorase/resazurin readout), read-out: MDAMB-231 IC50
pIC50: −log10 of the molar value.
ENDPOINT: pIC50

Please review the entries below; each comes with its answer.
# COMPOUND, SYSTEM_TESTED, pIC50
rows = [
    ("Cc1ccccc1Oc1cc(-n2c(=O)cc(S(=O)(=O)c3ccccc3)[nH]c2=O)c(F)cc1C#N", "MDA-MB231 cells", "< 4.52"),
    ("COc1cc(C#N)c(Oc2ccccc2Cl)cc1-n1c(=O)cc(C(F)(F)F)[nH]c1=O (single isomer, unassigned) [Example 16]", "MDA-MB231 cells", 4.97),
    ("Cc1cccc(N)c1Oc1cc(-n2c(=O)cc(C(F)(F)F)[nH]c2=O)c(F)cc1C#N", "MDA-MB231 cells", "< 4.52"),
    ("COc1cc(C#N)c(Oc2ccccc2C)cc1-n1c(=O)cc(S(=O)(=O)c2ccccc2)[nH]c1=O (racemic)", "MDA-MB231 cells", "< 4.52"),
]

Batch request: pIC50 per item, same order as input.
1. COc1cc(C#N)c(Oc2ccccc2Cl)cc1-n1c(=O)cc(C(F)(F)F)[nH]c1=O (racemic) [Example 15]
2. COc1cc(Cl)c(Oc2ccccc2C)cc1-n1c(=O)cc(C(F)(F)F)[nH]c1=O (racemic)
3. Cc1ccccc1Oc1cc(-n2c(=O)cc(-c3ccc(C(F)(F)F)cc3)[nH]c2=O)c(F)cc1C#N
4. COc1cc(C#N)c(Oc2ccccc2C)cc1-n1c(=O)cc(-c2ccccc2)[nH]c1=O (racemic)
5. Cc1ccccc1Oc1cc(-n2c(=O)cc(C(=O)NCC(F)(F)F)[nH]c2=O)c(F)cc1C#N

output:
[4.77, "< 4.52", 5.05, "< 4.52", "< 4.52"]

###

SYSTEM_TESTED: recombinant human BCAT2 enzyme (Homo sapiens)
Construct: purchased ATGen (South Korea) ATGP1523
Sequence (O15382 28-392): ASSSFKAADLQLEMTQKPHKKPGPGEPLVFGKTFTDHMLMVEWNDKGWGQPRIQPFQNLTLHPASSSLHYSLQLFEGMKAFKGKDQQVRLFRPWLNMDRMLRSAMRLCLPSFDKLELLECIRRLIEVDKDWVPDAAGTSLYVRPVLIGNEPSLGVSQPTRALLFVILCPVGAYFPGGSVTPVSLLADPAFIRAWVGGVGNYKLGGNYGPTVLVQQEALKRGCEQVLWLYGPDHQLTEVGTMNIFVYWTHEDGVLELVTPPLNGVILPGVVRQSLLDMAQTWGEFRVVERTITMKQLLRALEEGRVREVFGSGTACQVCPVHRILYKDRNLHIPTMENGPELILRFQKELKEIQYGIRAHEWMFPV
EXPERIMENT_DESCRIPTION: In vitro assay 1b: BCAT2 biochemical assay (coupled LeuDH/NADH fluorescence readout); also: recombinant human BCAT2 0.75 nM
TEST_CONDITIONS: recombinant human BCAT2 […], 32° C., 100 μM leucine, 50 μM α-ketoglutarate, NADH fluorescence over 90 min; read-out: BCAT2 IC50
ENDPOINT: IC50 (µM)
Answers are plain numbers, in µM.

Please review the entries below; each comes with its answer.
# COMPOUND, IC50 / µM
records = [
    ("COc1cc(C#N)c(Oc2ccccc2C)cc1-n1c(=O)cc(S(C)(=O)=O)[nH]c1=O (single isomer, unassigned) [Example 80]", 2.5),
    ("COc1cc(C#N)c(Oc2ccccc2C)cc1-n1c(=O)cc(-c2ccccc2)[nH]c1=O (single isomer, unassigned) [Example 44]", 6.5),
    ("COc1cc(C#N)c(Oc2ccccc2C)cc1-n1c(=O)cc(C(F)(F)C(F)(F)F)[nH]c1=O (racemic) [Example 51]", 4.33),
    ("Cc1ccc(Oc2cc(-n3c(=O)cc(C(F)(F)F)[nH]c3=O)c(F)cc2C#N)c(C)c1 [Example 66]", 49),
]

Batch request: IC50 per item, same order as input.
1. COc1cc(Cl)c(Oc2ccccc2C)cc1-n1c(=O)cc(C(F)(F)F)[nH]c1=O (racemic) [Example 27]
2. Cc1ccccc1Oc1cc(-n2c(=O)cc(-c3ccccc3)[nH]c2=O)c(F)cc1C#N [Example 49]
3. Cc1ccccc1Oc1cc(-n2c(=O)cc(S(C)(=O)=O)[nH]c2=O)c(F)cc1C#N [Example 75]

output:
[4.33, 4.93, 16]

###

Give log10 IC50 for every item shown.
SYSTEM_TESTED: recombinant human BCAT1 enzyme (Homo sapiens)
Construct: purchased ATGen (South Korea) ATGP1479
EXPERIMENT_DESCRIPTION: In vitro assay 1a: BCAT1 biochemical assay (coupled LeuDH/NADH fluorescence readout)
TEST_CONDITIONS: recombinant human BCAT1 […], 32° C., 100 μM leucine, 50 μM α-ketoglutarate, NADH fluorescence over 90 min; read-out: BCAT1 IC50
Give log10 of IC50, with IC50 taken in nM.

# MOLECULE, log10 IC50
data = [
    ("Cc1ccccc1Oc1cc(-n2c(=O)cc(-c3ccc(C(F)(F)F)cc3)[nH]c2=O)c(F)cc1C#N", 3.33),
]

Batch request: log10 IC50 per item, same order as input.
1. COc1cc(C#N)c(Oc2ccccc2Cl)cc1-n1c(=O)cc(C(F)(F)F)[nH]c1=O (single isomer, unassigned) [Example 17]
2. COc1cc(C#N)c(Oc2ccccc2C)cc1-n1c(=O)cc(S(C)(=O)=O)[nH]c1=O (single isomer, unassigned) [Example 80]
3. COc1cc(Cl)c(Oc2ccccc2C)cc1-n1c(=O)cc(C(F)F)[nH]c1=O (racemic)
4. Cc1ccccc1Oc1cc(-n2c(=O)cc(C(F)(F)c3ccccc3)[nH]c2=O)c(Cl)cc1C#N (racemic)

output:
1. 4.28
2. 2.48
3. 2.45
4. 2.88

Batch request: log10 IC50 per item, same order as input.
1. COc1cc(C#N)c(Oc2ccccc2C)cc1-n1c(=O)cc(C2CC2)[nH]c1=O (racemic)
2. Cc1ccccc1Oc1cc(-n2c(=O)cc(C(F)(F)Cl)[nH]c2=O)c(F)cc1C#N

output:
1. 2.26
2. 2.65

Batch request: log10 IC50 per item, same order as input.
1. COc1cc(Cl)c(Oc2ccccc2Cl)cc1-n1c(=O)cc(C(F)(F)F)[nH]c1=O (racemic)
2. Cc1cccc(C)c1Oc1cc(-n2c(=O)cc(C(F)(F)F)[nH]c2=O)c(Cl)cc1C#N (racemic)

output:
[2.88, 2.45]
